Source of measurements: the SangsterLogP compilation

# reported logP; entries follow
Could you keep your reply to the number by itself?

[[record]]
compound = "N#Cc1cnc2ccccc2c1"
measured_number = 1.64

[[record]]
compound = "CNC(=O)Nc1ccc(C(=O)O)cc1"
measured_number = 1.16

[[record]]
compound = "CO/N=C(/C(=O)OC)c1ccccc1CO/N=C(\\C)c1cccc(C(F)(F)F)c1"
measured_number = 4.45

[[record]]
compound = "O=C(NCCc1ncc(C(F)(F)F)cc1Cl)c1ccccc1C(F)(F)F"
measured_number = 3.26

[[record]]
compound = "CCC(=O)c1ccccc1"
measured_number = 2.16

[[record]]
compound = "O=C1CC(C(=O)O)CC(=O)C1=C(O)C1CC1 (configuration not stated)"
measured_number = 1.42

[[record]]
compound = "CCCOC(=O)C(C)Oc1ccc(Oc2ccc(C(F)(F)F)cn2)cc1 (configuration not stated)"
measured_number = 4.44

[[record]]
compound = "O=c1c2cc(F)ccc2nc(-n2cncn2)n1-c1ccc(Cl)cc1Cl"
measured_number = 3.21


Summary for this compound, COC(=O)c1ccccc1CS(=O)(=O)NC(=O)Nc1nc(OC)cc(OC)n1 : logP is 2.36

Summary for this compound, CCCN(CCOc1c(Cl)cc(Cl)cc1Cl)C(=O)n1ccnc1 : logP is 4.02

Summary for this compound, CC1=C(C(=O)Nc2ccccc2)SCCO1 : logP is 2.08

Summary for this compound, CSc1nnc(C(C)(C)C)c(=O)n1N : logP is 1.61

* * *

property: logP
Could you keep your reply to the number by itself?

Field: example entries. Status: answers known.
[[record]]
molecule = "N#Cc1c[nH]cc1-c1cccc2c1OC(F)(F)O2"
measured_number = 4.16

[[record]]
molecule = "CON(C(=O)c1cn(C)nc1C(F)F)C(C)Cc1c(Cl)cc(Cl)cc1Cl (stereo unspecified)"
measured_number = 3.77

[[record]]
molecule = "Cc1cc(Cl)ccc1OCC(=O)O"
measured_number = 2.79


Summary for this molecule, CC1(c2ccc(Oc3ccccc3)cc2)OC(=O)N(Nc2ccccc2)C1=O (stereo unspecified) : logP is 4.78

Summary for this molecule, FC(F)C(F)(F)OCC(Cn1cncn1)c1ccc(Cl)cc1Cl (stereo unspecified) : logP is 3.49

Summary for this molecule, Fc1ccc(Oc2ccnc3cc(Cl)cc(Cl)c23)cc1 : logP is 5.27

* * *

Returns the class for an entry based on its logP. Class ranges: low class = under 2, middle class = from 2 up to 3, high class = 3 and over

Examples from the recorded data:
[[record]]
compound = "CS(=O)(=O)c1ccc(C(=O)C2C(=O)CCCC2=O)c(Cl)c1COCC(F)(F)F"
group_label = "middle class"

[[record]]
compound = "c1ccc2c(c1)Nc1ccccc1S2"
group_label = "high class"


Q: For the record Nc1c(Cl)cccc1Cl , report the class its logP corresponds to.
A: middle class

Q: For the record COC(=O)c1ccccc1C(=O)OC , report the class its logP corresponds to.
A: low class

Q: For the record CC(C)N1C(=O)N(c2ccccc2)CSC1=NC(C)(C)C , report the class its logP corresponds to.
A: high class

Q: For the record c1ccc(Oc2ccccn2)cc1 , report the class its logP corresponds to.
A: middle class

Q: For the record Cc1nc(N(C)C)nc(OC(=O)N(C)C)c1C , report the class its logP corresponds to.
A: low class

Q: For the record CC(=NC#N)N(C)Cc1ccc(Cl)nc1 , report the class its logP corresponds to.
A: low class

Q: For the record COC(=O)c1cc(Oc2ccc(Cl)cc2Cl)ccc1[N+](=O)[O-] , report the class its logP corresponds to.
A: high class

Q: For the record Nc1ccc(C(F)(F)F)cc1 , report the class its logP corresponds to.
A: middle class

Q: For the record Cc1cc(C)nc(NC(=O)NS(=O)(=O)c2ccccc2C(=O)OC2COC2)n1 , report the class its logP corresponds to.
A: low class

Q: For the record OC(Cn1cncn1)(c1ccc(F)cc1)c1ccccc1F (stereo not drawn) , report the class its logP corresponds to.
A: middle class

Q: For the record CCCCn1nnc2ccccc21 , report the class its logP corresponds to.
A: middle class
